- Species: Mus musculus
- ASSAY_COMMENT: Biodistribution of [225Ac]-labeled compound in normal mice spleen after 4 hr
- Type: ADME, organism-based
- RUN_CONDITIONS: in vivo
MEASURE: ID/g (%)

>  <COMPOUND>
O=C(O)CN1CCN(CC(=O)O)CCN(CC(=O)O)CCN(CC(=O)O)CCN(CC(=O)O)CC1

>  <QUANTITATIVE_RESULT>
0.59

$$$$

a = O=C(O)CN1CCN(CC(=O)O)CCN(CC(=O)O)CCN(CC(=O)O)CCN(CC(=O)O)CCN(CC(=O)O)CC1
b = O=C(O)CN1CCN(CC(=O)O)CCN(CC(=O)O)C(Cc2ccc([N+](=O)[O-])cc2)CN(CC(=O)O)CC1 (centres undefined)
c = O=C(O)CN(CC(=O)O)[C@H](Cc1ccc([N+](=O)[O-])cc1)CN(CC(=O)O)[C@@H]1CCCC[C@H]1N(CC(=O)O)CC(=O)O
Ask: Rank the items in ascending order with respect to ID/g. Write the labels out in the order the request specifies.
Result: a, b, c
